- target: OXA-15 (Pseudomonas aeruginosa, UniProt Q51574)
- Construct: made in house; host or cells: E. coli
- Sequence (Q51574 22-275): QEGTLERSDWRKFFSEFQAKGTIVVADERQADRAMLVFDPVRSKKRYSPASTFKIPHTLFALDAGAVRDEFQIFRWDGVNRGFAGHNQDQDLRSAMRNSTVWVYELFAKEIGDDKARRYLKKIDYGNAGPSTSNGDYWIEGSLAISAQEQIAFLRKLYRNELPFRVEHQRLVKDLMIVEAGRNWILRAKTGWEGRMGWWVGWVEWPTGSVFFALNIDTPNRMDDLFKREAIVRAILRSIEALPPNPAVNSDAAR
- protocol_notes: biochemical
experimental_endpoint: IC50 (nM)
Your answer should be a plain number; it is taken to be in nM.

molecule	display_unit	IC50
O=C1N2CC(c3nc4ccccc4s3)=CC(C2)N1OS(=O)(=O)[O-].[Na+] (stereo not shown) [Example 27, sulfate]	nM	99
O=C1N2CC(c3nc4cccnc4s3)=CC(C2)N1OS(=O)(=O)[O-].[Na+] (stereo not shown) [Example 40, sulfate]	nM	77
Cn1cc(C2=CCN3CC2N(OS(=O)(=O)[O-])C3=O)ncc1=O.[Na+] (stereo not shown) [Example 14, sulfate]	nM	33

Form field, IC50 with OXA-15 (Pseudomonas aeruginosa, UniProt Q51574), item Cn1cc(C2=CCN3CC2N(OS(=O)(=O)[O-])C3=O)cnc1=O.[Na+] (stereo not shown) [Example 15, sulfate] : 290

Just for reference, patent US10183943B2 is where these values come from.
